As shown below, each of these compounds has a reported Plant response rating, Foxtail, Giant value.
Test system: foxtail, giant (giant foxtail, Setaria faberii)
Run Description: Test C postemergence, plant response rating
Format: in vivo
Experimental Setup: 16 g ai/ha, scale of 0 to 100
Note: the reply should be a number with no unit written.

- Compound Structure: "FC(F)(F)CCCCc1c(Cl)cccc1Oc1ncc(Cl)cn1"
  Plant response rating, Foxtail, Giant: 20

What Plant response rating, Foxtail, Giant value was documented for this compound, FC(F)(F)CCCCc1c(Br)cccc1Oc1ncc(Cl)cn1 ?
10

Quick one: Plant response rating, Foxtail, Giant of N#Cc1cccc(Oc2ncc(Cl)cn2)c1COCCC(F)(F)F ?
5

What value of measured Plant response rating, Foxtail, Giant is listed for O=C(CCC(F)(F)F)c1c(Br)cccc1Oc1ncc(Cl)cn1 ?
10

---

Tested on: galium (catchweed bedstraw, Galium aparine)
Run Description: Test C postemergence, plant response rating
Format: in vivo
Experimental Setup: 125 g ai/ha, scale 0 to 100 (0 no effect, 100 complete control)
Measured Parameter: Galium plant response rating
# print the numeric value only

Examples with answers:
- Compound Structure: "O=C(OCC(F)(F)F)c1c(Br)cccc1Oc1ncc(Cl)cn1"
  Galium plant response rating: 60
- Compound Structure: "O=C(CCCC(F)(F)F)c1c(Br)cccc1Oc1ncc(Cl)cn1"
  Galium plant response rating: 98
- Compound Structure: "CCCCC(=O)c1c(Br)cccc1Oc1ncc(Cl)cn1"
  Galium plant response rating: 95
- Compound Structure: "O=C(CCCC(F)(F)F)c1c(Cl)cccc1Oc1ncc(Cl)cn1"
  Galium plant response rating: 95
- Compound Structure: "O=C(CCC(F)(F)C(F)(F)F)c1c(Br)cccc1Oc1ncc(Cl)cn1"
  Galium plant response rating: 90

Please turn your attention to the following entry.
Kindly state the measured Galium plant response rating obtained for O=C(OCCC(F)(F)F)c1c(Br)cccc1Oc1ncc(Br)cn1 with galium (catchweed bedstraw, Galium aparine).
85

---

Tested on: barnyardgrass (Echinochloa crus-galli)
Run Description: Test A postemergence, visual injury rating
Type: in vivo
Experimental Setup: 125 g ai/ha, 0 is no effect, 100 is complete control
Excerpt: […]
Reported Barnyardgrass plant response rating (0 to 100 scale) values are given for each entry in this list.
Enter a number only.

Completed entries (count: 4):
- Compound: "FC(F)(F)C(F)(F)COCc1c(Br)cccc1Oc1ncc(Cl)cn1"
  Result Value: 10
- Compound: "CC(C)=CCOC(=O)c1c(Br)cccc1Oc1ncc(Cl)cn1"
  Result Value: 10
- Compound: "FC(F)(F)COCc1c(Br)cccc1Oc1ncc(Cl)cn1"
  Result Value: 40
- Compound: "O=C(OCC(F)(F)F)c1c(Br)cccc1Oc1ncc(Br)cn1"
  Result Value: 0

Suppose we examine the compound O=C(OCCCC(F)(F)F)c1c(Oc2ncc(Cl)cn2)cccc1C(F)(F)F ; what Barnyardgrass plant response rating (0 to 100 scale) value has been reported?
30

GET /values?readout=Barnyardgrass plant response rating (0 to 100 scale)&item= CN(OCC(F)(F)F)C(=O)c1c(Br)cccc1Oc1ncc(Br)cn1
0

# get_value(readout='Barnyardgrass plant response rating (0 to 100 scale)', item= O=C(OC1CCCC1)c1c(Br)cccc1Oc1ncc(Cl)cn1 )
0

// Barnyardgrass plant response rating (0 to 100 scale) lookup, key: N#Cc1cnc(Oc2cccc(Br)c2C(=O)OCC(F)(F)F)nc1
0

Can you look up the measured Barnyardgrass plant response rating (0 to 100 scale) of CCCCC(=O)c1c(C#N)cccc1Oc1ncc(Cl)cn1 for me?
30

May I ask what Barnyardgrass plant response rating (0 to 100 scale) has been recorded for C=CC(C)COC(=O)c1c(Br)cccc1Oc1ncc(Cl)cn1 (stereo not shown) ?
30

Return reported Barnyardgrass plant response rating (0 to 100 scale); argument: O=C(OCC(F)(F)F)c1c(F)cccc1Oc1ncc(Cl)cn1
0

What value of Barnyardgrass plant response rating (0 to 100 scale) has been reported for the following compound? FC(F)(F)CCCOCc1c(Br)cccc1Oc1ncc(Cl)cn1
40

Name the reported Barnyardgrass plant response rating (0 to 100 scale) value associated with the compound O=C(SCCC(F)(F)F)c1c(Br)cccc1Oc1ncc(Cl)cn1
40

Give the measured Barnyardgrass plant response rating (0 to 100 scale) of O=C(OCC(Cl)(Cl)Cl)c1c(Br)cccc1Oc1ncc(Cl)cn1 .
20

Form field: reported Barnyardgrass plant response rating (0 to 100 scale) of N#Cc1cccc(Oc2ncc(Cl)cn2)c1CCCC(F)(F)F
80

Item under review: CN(CCC(F)(F)F)C(=O)c1c(Br)cccc1Oc1ncc(Cl)cn1 . Reported Barnyardgrass plant response rating (0 to 100 scale)?
0

Please look up its Barnyardgrass plant response rating (0 to 100 scale): CC(CN(C)C(=O)c1c(Br)cccc1Oc1ncc(Cl)cn1)C(F)(F)F (stereo not shown)
0

So what does the record say about Barnyardgrass plant response rating (0 to 100 scale) for O=C(OCC(F)(F)F)c1c(Br)cccc1Oc1ncc(Cl)cn1 ?
10

Item under review: N#Cc1cccc(Oc2ncc(Cl)cn2)c1C(=O)OCCC(F)(F)F . Reported Barnyardgrass plant response rating (0 to 100 scale)?
0

Reported Barnyardgrass plant response rating (0 to 100 scale), compound O=C(OCCCl)c1c(Br)cccc1Oc1ncc(Cl)cn1 : ____
30

What Barnyardgrass plant response rating (0 to 100 scale) value was documented for this compound, CCCC(=O)c1c(C#N)cccc1Oc1ncc(Cl)cn1 ?
0

# lookup: Barnyardgrass plant response rating (0 to 100 scale) of C=C(C)COC(=O)c1c(Br)cccc1Oc1ncc(Cl)cn1
60

---

# maps each entry to its Plant response rating, Waterhemp
System: waterhemp (common waterhemp, Amaranthus rudis)
Run Description: Test C preemergence, plant response rating
Type: in vivo
Experimental Setup: Preemergence; 31 g ai/ha; scale 0 to 100
// return just the number, without any unit appended

- Compound Structure: "FC(F)(F)CCCc1c(Br)cccc1Oc1ncc(Cl)cn1"
  Tested On: "waterhemp (common waterhemp, Amaranthus rudis)"
  Measured Parameter: "Plant response rating, Waterhemp"
  Result Value: 85

// lookup Plant response rating, Waterhemp for O=C(CCCC(F)(F)F)c1c(Br)cccc1Oc1ncc(Cl)cn1
100

Plant response rating, Waterhemp for FC(F)(F)CCCCc1c(Br)cccc1Oc1ncc(Cl)cn1 ?
85

GET /values?readout=Plant response rating, Waterhemp&item= O=C(CCCCC(F)(F)F)c1c(Br)cccc1Oc1ncc(Cl)cn1
50

---

Recorded Plant response rating, Rice values for a group of compounds are listed next.
Tested on: rice (Oryza sativa)
Run Description: Test B flooded paddy test, plant response rating
Format: in vivo
Experimental Setup: 250 g ai/ha; Flood; scale of 0 to 100 where 0 is no effect and 100 is complete control; 13 to 15 days
Answer using only a numeral; do not append any unit.

In the examples that follow, each entry is paired with its recorded Plant response rating, Rice.
- Compound: "O=C(OCC(F)(F)F)c1c(F)cccc1Oc1ncc(Br)cn1 [Compound 47]"
  Plant response rating, Rice: 0
- Compound: "O=C(SCC(F)(F)F)c1c(Br)cccc1Oc1ncc(Cl)cn1 [Compound 85]"
  Plant response rating, Rice: 0
- Compound: "CC(=NOC(C)C)c1c(Br)cccc1Oc1ncc(Cl)cn1 [Compound 105]"
  Plant response rating, Rice: 0
- Compound: "O=C(OCCC1CC1)c1c(Br)cccc1Oc1ncc(Cl)cn1 [Compound 123]"
  Plant response rating, Rice: 35
- Compound: "O=C(OCC(F)(F)C(F)(F)F)c1c(F)cccc1Oc1ncc(Br)cn1 [Compound 4]"
  Plant response rating, Rice: 0

Param readout = Plant response rating, Rice; param system = rice (Oryza sativa); param query = CCCCC(C#N)c1ccccc1Oc1ncc(Cl)cn1 (stereo not drawn) [Compound 129] ; response: value
40

Which measured Plant response rating, Rice belongs to O=C(OC/C=C/C(F)(F)F)c1c(Br)cccc1Oc1ncc(Cl)cn1 [Compound 50] , tested on rice (Oryza sativa)?
0

Lab request: please report Plant response rating, Rice under test system rice (Oryza sativa) for CCc1cccc(Oc2ncc(Cl)cn2)c1CCCCC(F)(F)F [Compound 134]
20

Plant response rating, Rice of CCCSC(=O)c1c(Br)cccc1Oc1ncc(Cl)cn1 [Compound 70] on rice (Oryza sativa)?
0

---

Test system: galium (catchweed bedstraw, Galium aparine)
Run Description: Test A postemergence, visual injury rating
Format: in vivo
Experimental Setup: 125 g ai/ha, 0 to 100 scale, 0 is no effect, 100 is complete control, approximately 10 days
From the text: […]
Measured Galium plant response rating, listed per entry for reference.
The answer should be written as a number, with no unit following it.

Look over these answered cases.
- Compound Structure: "O=Cc1c(Cl)cccc1Oc1ncc(Cl)cn1"
  Galium plant response rating: 0
- Compound Structure: "CCCCc1c(C#N)cccc1Oc1ncc(Cl)cn1"
  Galium plant response rating: 70
- Compound Structure: "O=C(CCC(F)(F)C(F)(F)F)c1c(Br)cccc1Oc1ncc(Cl)cn1"
  Galium plant response rating: 100
- Compound Structure: "O=C(CCCC(F)(F)F)c1c(Oc2ncc(Cl)cn2)cccc1C(F)(F)F"
  Galium plant response rating: 100
- Compound Structure: "C=CCSC(=O)c1c(Br)cccc1Oc1ncc(Cl)cn1"
  Galium plant response rating: 70
- Compound Structure: "COc1cccc(Oc2ncc(Cl)cn2)c1C(=O)OCCC(F)(F)F"
  Galium plant response rating: 80

Which Galium plant response rating value is on record for CC(=NOCCC(F)(F)F)c1c(Br)cccc1Oc1ncc(Cl)cn1 ?
50

Please give the measured Galium plant response rating for this compound: CCCCCOC(=O)c1c(Br)cccc1Oc1ncc(Cl)cn1
40

Name the recorded Galium plant response rating for CN(CCCC(F)(F)F)c1c(C#N)cccc1Oc1ncc(Cl)cn1 .
0

What Galium plant response rating value was documented for this compound, CCc1cccc(Oc2ncc(Cl)cn2)c1CCCCC(F)(F)F ?
40

Please give the measured Galium plant response rating for this compound: O=C(OCCC1CC1)c1c(Br)cccc1Oc1ncc(Cl)cn1
100

Would you kindly share the measured Galium plant response rating for CC(C)(C)CCOC(=O)c1c(Br)cccc1Oc1ncc(Cl)cn1 ?
20

Request the reported Galium plant response rating associated with FC(F)(F)CCCc1c(Br)cccc1Oc1ncc(Cl)cn1
80

Please report the recorded Galium plant response rating for CC(=NOC(C)C)c1c(Br)cccc1Oc1ncc(Cl)cn1 .
20

Fill in: Galium plant response rating of N#Cc1cccc(Oc2ncc(Cl)cn2)c1C(=O)CCC(F)(F)F is ___
20

Entry N#Cc1cccc(Oc2ncc(Cl)cn2)c1NCCCC(F)(F)F has what Galium plant response rating?
100
